System: DU-145
protocol.summary: NCI tumour cell line growth inhibition, 48 h
Activity calls are given as the source filed them. Cut-off read from the data, not from the text of the source: active = GI50 up to about 1.1 µM and inactive = higher.
Form field: GI50 (one value per entry).

compound	GI50
CC(=O)OCc1cn(S(=O)(=O)c2ccc(C)cc2)cn1	> 100 µM (inactive)
CSc1ncc2c(C#N)c3sc4ccccc4n3c(=O)c2n1	> 100 µM (inactive)
CC(C)N(C)C(=O)C12C3C4C1C1C2C3C41C#N (stereo not given)	> 100 µM (inactive)
COC(=O)C1(Cc2ccc3c(c2)CCC3)Cc2ccc3c(c2C1)CCC3 (stereo not given)	24.8 µM (inactive)
O=c1c2cnccc2cc2c3ccccc3ccn12	> 100 µM (inactive)
c1ncc(C23C4C5C6C4C2C6C53)[nH]1 (stereo not given)	> 100 µM (inactive)
NS(=O)(=O)c1nnc(NSc2ccc([N+](=O)[O-])cc2)s1	> 100 µM (inactive)
O=C(Nc1ccc2[nH]c(C(=O)N3CC(CCl)c4c3cc([N+](=O)[O-])c3ccccc43)cc2c1)Nc1ccc2[nH]c(C(=O)N3CC(CCl)c4c3cc([N+](=O)[O-])c3ccccc43)cc2c1 (stereo not given)	> 100 µM (inactive)
COC1(OC)C=CC2C1C1C=CC2C1(OC)OC (stereo not given)	> 100 µM (inactive)
C=C1C(=O)[C@@]23CC[C@@H]4[C@@]5(C)CCC[C@@]4(OC5=O)[C@@]2(C)CC[C@@H]1C3	3.78 µM (inactive)
